- SUBJECT_OF_TEST: T1, human GPC3 (human, UniProt P51654 25-563)
- T1 construct: range 25-563; soluble analyte; also called soluble human GPC3; glypican 3
- TEST: SPR
Kd strictly less than 4 nM = 1. Otherwise -1.

BINDER | LABEL_CLASS
H0610-G1dh/none-Hi-Kn010G3/L0012-k0 (antibody, V domains shown, one-arm) VH: QVQLVQSGAEVKKPGASVKVSCKASGYTFTDYEMHWIRQPPGQGLEWIGAIDGKTPDTAYSQKFKGRVTLTADKSTSTAYMELSSLTSEDTAVYYCTRFYSYTYWGQGTLVTVSS VL: DIVMTQSPLSLPVTPGEPASISCRSSQSFVHSNRNTYLHWYQQKPGQAPRLLIYKVSNRFSGVPDRFSGSGSGTDFTLKISRVEAEDVGVYYCGQGTQVPYTFGQGTKLEIK | 1
H0610-G1dh/none-Hi-Kn010G3/L0075-k0 (antibody, V domains shown, one-arm) VH: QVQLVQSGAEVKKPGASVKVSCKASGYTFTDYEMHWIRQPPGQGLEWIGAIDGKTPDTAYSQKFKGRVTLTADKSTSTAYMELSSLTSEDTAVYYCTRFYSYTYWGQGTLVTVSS VL: DIVMTQSPLSLPVTPGEPASISCRSSQSLVHSNRWTYLHWYQQKPGQAPRLLIYKVSNRFSGVPDRFSGSGSGTDFTLKISRVEAEDVGVYYCGQGTQVPYTFGQGTKLEIK | 1
H0610-G1dh/none-Hi-Kn010G3/L0117-k0 (antibody, V domains shown, one-arm) VH: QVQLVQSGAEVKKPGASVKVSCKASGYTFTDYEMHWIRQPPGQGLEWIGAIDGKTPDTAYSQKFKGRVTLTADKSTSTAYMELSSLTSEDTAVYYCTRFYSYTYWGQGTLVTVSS VL: DIVMTQSPLSLPVTPGEPASISCRSSQSLVHSNRNTYLHWYQQKPGQAPRLLIYKVSNRASGVPDRFSGSGSGTDFTLKISRVEAEDVGVYYCGQGTQVPYTFGQGTKLEIK | -1
GCH054-G1dh/none-Hi-Kn010G3/TR01L015-k0 (antibody, V domains shown, one-arm) VH: QVQLVQSGAEVKKPGASVTVSCKASGYTFTDYEMHWIRQPPGEGLEWIGAIDGETPDTAYSEKFKGRVTLTADKSTSTAYMELSSLTSEDTAVYYCTRFYSYTYWGQGTLVTVSS VL: DIVMTQSPLSLPVTPGEPASISCRSSQSPVHSNRNTYLHWYLQKPGQSPQLLIYKVSNRFSGVPDRFSGSGSGTDFTLKISRVEAEDVGVYYCGQGTQVPYTFGQGTKLEIK | 1
H0610-G1dh/none-Hi-Kn010G3/L0138-k0 (antibody, V domains shown, one-arm) VH: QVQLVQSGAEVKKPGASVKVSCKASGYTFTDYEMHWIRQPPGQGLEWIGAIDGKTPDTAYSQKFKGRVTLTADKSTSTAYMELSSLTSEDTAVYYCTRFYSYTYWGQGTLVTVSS VL: DIVMTQSPLSLPVTPGEPASISCRSSQSLVHSNRNTYLHWYQQKPGQAPRLLIYKVSNRFHGVPDRFSGSGSGTDFTLKISRVEAEDVGVYYCGQGTQVPYTFGQGTKLEIK | -1
H0610-G1dh/none-Hi-Kn010G3/L0120-k0 (antibody, V domains shown, one-arm) VH: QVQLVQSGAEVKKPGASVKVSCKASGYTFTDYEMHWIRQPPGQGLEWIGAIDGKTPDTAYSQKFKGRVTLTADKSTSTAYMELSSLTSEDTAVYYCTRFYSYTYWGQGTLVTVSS VL: DIVMTQSPLSLPVTPGEPASISCRSSQSLVHSNRNTYLHWYQQKPGQAPRLLIYKVSNRGSGVPDRFSGSGSGTDFTLKISRVEAEDVGVYYCGQGTQVPYTFGQGTKLEIK | -1
H0610-G1dh/none-Hi-Kn010G3/L0202-k0 (antibody, V domains shown, one-arm) VH: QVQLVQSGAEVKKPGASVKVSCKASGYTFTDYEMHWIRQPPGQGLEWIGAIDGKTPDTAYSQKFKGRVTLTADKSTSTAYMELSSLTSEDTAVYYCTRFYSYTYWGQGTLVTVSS VL: DIVMTQSPLSLPVTPGEPASISCRSSQSPVHSNRWTYLHWYQQKPGQAPRLLIYKVSNRFSGVPDRFSGSGSGTDFTLKISRVEAEDVGVYYCGQGTQVPYTFGQGTKLEIK | 1
H0610-G1dh/none-Hi-Kn010G3/L0239-k0 (antibody, V domains shown, one-arm) VH: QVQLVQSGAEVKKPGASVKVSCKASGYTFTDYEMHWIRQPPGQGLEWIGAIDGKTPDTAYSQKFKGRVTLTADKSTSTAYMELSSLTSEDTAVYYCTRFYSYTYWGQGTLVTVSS VL: DIVMTQSPLSLPVTPGEPASISCRSSESPVHSNRNTYLHWYQQKPGQAPRLLIYKVSNRFRGVPDRFSGSGSGTDFTLKISRVEAEDVGVYYCGQGTQVPYTFGQGTKLEIK | 1
H0610-G1dh/none-Hi-Kn010G3/L0209-k0 (antibody, V domains shown, one-arm) VH: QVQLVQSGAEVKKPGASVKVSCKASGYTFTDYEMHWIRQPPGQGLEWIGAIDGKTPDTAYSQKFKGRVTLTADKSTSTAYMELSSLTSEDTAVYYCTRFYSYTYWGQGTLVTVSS VL: DIVMTQSPLSLPVTPGEPASISCRSSQSPVHSNRNTYIHWYQQKPGQAPRLLIYKVSNRFSGVPDRFSGSGSGTDFTLKISRVEAEDVGVYYCYQGTQVPYTFGQGTKLEIKR | 1
